target.or.test.system: poly (dG.dC) - poly (dG.dC)
assay.details: Ethidium bromide displacement, poly(dG.dC)-poly(dG.dC)
condition.details: ethidium bromide displacement; 1 μM DNA, 1.26 μM ethidium bromide, pH 7.0; read-out: FI50, poly (dG.dC) - poly (dG.dC)
pIC50: −log10 of the molar value.
Listed here are compounds together with their documented pIC50.

[
  {
    "compound": "O=C1c2cccc3cc([N+](=O)[O-])cc(c23)C(=O)N1CCNCC[S+]([O-])CCN1C(=O)c2cccc3cc([N+](=O)[O-])cc(c23)C1=O (stereo not shown) [Compound 12]",
    "target.or.test.system": "poly (dG.dC) - poly (dG.dC)",
    "pIC50": 6.90
  },
  {
    "compound": "O=C1c2cccc3cc([N+](=O)[O-])cc(c23)C(=O)N1CCNCCSCCN1C(=O)c2cccc3cc([N+](=O)[O-])cc(c23)C1=O",
    "target.or.test.system": "poly (dG.dC) - poly (dG.dC)",
    "pIC50": 6.11
  },
  {
    "compound": "O=C1c2cccc3cc([N+](=O)[O-])cc(c23)C(=O)N1CCNCCS(=O)(=O)CCN1C(=O)c2cccc3cc([N+](=O)[O-])cc(c23)C1=O [Compound 14]",
    "target.or.test.system": "poly (dG.dC) - poly (dG.dC)",
    "pIC50": 6.17
  },
  {
    "compound": "C[C@H](CNCCNC[C@@H](C)N1C(=O)c2cccc3cc([N+](=O)[O-])cc(c23)C1=O)N1C(=O)c2cccc3cc([N+](=O)[O-])cc(c23)C1=O",
    "target.or.test.system": "poly (dG.dC) - poly (dG.dC)",
    "pIC50": 7.04
  },
  {
    "compound": "O=C1c2cccc3cc([N+](=O)[O-])cc(c23)C(=O)N1CCNCC[S+]([O-])CCN1C(=O)c2cccc3cc([N+](=O)[O-])cc(c23)C1=O (stereo not shown) [Compound 13]",
    "target.or.test.system": "poly (dG.dC) - poly (dG.dC)",
    "pIC50": 7.74
  },
  {
    "compound": "O=C1c2cccc3cc([N+](=O)[O-])cc(c23)C(=O)N1CCOCCOCCN1C(=O)c2cccc3cc([N+](=O)[O-])cc(c23)C1=O",
    "target.or.test.system": "poly (dG.dC) - poly (dG.dC)",
    "pIC50": 4.31
  },
  {
    "compound": "O=C1c2cccc3cc([N+](=O)[O-])cc(c23)C(=O)N1CCNCCS(=O)(=O)CCN1C(=O)c2cccc3cc([N+](=O)[O-])cc(c23)C1=O [Compound 15]",
    "target.or.test.system": "poly (dG.dC) - poly (dG.dC)",
    "pIC50": 6.93
  }
]

----------
Test system: poly (dG.dC) - poly (dG.dC)
assay.details: Ethidium bromide displacement, poly(dG.dC)-poly(dG.dC)
Type: binding
condition.details: FI50 poly(dA.dT)-poly(dA.dT) / FI50 poly(dG.dC)-poly(dG.dC)
Below, each entry is listed with its recorded Ratio (AT/GC).

[
  {
    "molecule": "O=C1c2cccc3cc([N+](=O)[O-])cc(c23)C(=O)N1CCNCCS(=O)(=O)CCN1C(=O)c2cccc3cc([N+](=O)[O-])cc(c23)C1=O [Compound 14]",
    "Ratio (AT/GC)": 64.38
  },
  {
    "molecule": "O=C1c2cccc3cc([N+](=O)[O-])cc(c23)C(=O)N1CCNCCS(=O)(=O)CCN1C(=O)c2cccc3cc([N+](=O)[O-])cc(c23)C1=O [Compound 15]",
    "Ratio (AT/GC)": 144.4
  },
  {
    "molecule": "O=C1c2cccc3cc([N+](=O)[O-])cc(c23)C(=O)N1CCNCC[S+]([O-])CCN1C(=O)c2cccc3cc([N+](=O)[O-])cc(c23)C1=O (stereo not drawn) [Compound 13]",
    "Ratio (AT/GC)": 212.6
  }
]
